Exercise: for every item that follows, state its recorded MDR1-MDCK efflux ratio.
Answers are plain numbers.

Observe how each entry below is paired with its result.
smilesInput: CCN1CCC(CCNc2ncc(C)c(N(C)C)n2)CC1
MDR1-MDCK efflux ratio: 11.5

smilesInput: CN(C)[C@@H]1CN(C(=O)c2cc3ccc(F)cc3[nH]2)C[C@H]1O
MDR1-MDCK efflux ratio: 4.4

smilesInput: O=C(Nc1ccc2[nH]ncc2c1)[C@H]1CCCNC1
MDR1-MDCK efflux ratio: 0.38

smilesInput: NC(=O)C1(Cc2ccc(-c3cccnc3)cc2)CCN(Cc2cccc(Cl)c2)CC1
MDR1-MDCK efflux ratio: 4.87

smilesInput: Cc1ccc(C(=O)C(=O)Nc2c(C)nn(C)c2C)cc1
MDR1-MDCK efflux ratio: 0.615

For each entry beneath this line, provide reported MDR1-MDCK efflux ratio.
1. CN(CCN1CCOC1=O)C(=O)c1cc2cc(Br)ccc2o1
2. Cc1nccc(-c2cccc(NCC(=O)N3CCCCCCC3)c2)n1
3. Cc1cc(C)c2[nH]c(C(=O)N3CC[C@@](O)(CC(C)C)[C@@H](Oc4ccc(F)cc4)C3)c(C)c2c1
4. c1cnc(N2CCC(Cc3ccncc3)CC2)nc1
5. Cc1ccc(-n2cc(C)cn2)c(NC(=O)CN(C)C)c1
6. CC(C)(O)CCn1cc2cc(NC(=O)c3ccn(C(F)F)n3)c(OCC3COC3)cc2n1

1. 2.28
2. 0.748
3. 4.89
4. 0.575
5. 0.559
6. 11.8
